# Test system: Ba/F3 (parental)
# protocol.description: Inhibition of cell proliferation (GI50)
# Assay type: cell-based
# experimental.context: Mus musculus, BaF3; Ba/F3 (parental) cell line; read-out: Proliferation inhibitory activity (GI50, μM) Ba/F3 (parental)
The following compounds are listed with their measured GI50 values.

smi	GI50
Cc1ccc(Nc2ncc3cc(-c4cc(NC(=O)c5cccc(C(F)(F)F)c5)ccc4C)ncc3n2)cn1	< 0.5 µM
Cc1ccc(Nc2ncc3cc(-c4cc(NC(=O)c5cc(-n6cnc(C)c6)cc(C(F)(F)F)c5)ccc4C)ncc3n2)cn1	> 5 µM
COc1nc(-c2cc(NC(=O)c3cccc(C(F)(F)F)c3)ccc2C)cc2cnc(Nc3ccc(C)nc3)nc12	3 to 5 µM
Cc1ccc(Nc2ncc3cc(-c4cc(NC(=O)c5cccc(C(F)(F)F)c5)ccc4C)ncc3n2)c(C)n1	> 5 µM
Cc1ccc(NC(=O)c2cccc(C(F)(F)F)c2)cc1-c1cc2cnc(N)nc2cn1	> 5 µM
Cc1ccc(Nc2ncc3cc(-c4cc(NC(=O)c5cc(N6CCOCC6)cc(C(F)(F)F)c5)ccc4C)ncc3n2)cn1	0.5 to 3 µM
Cc1ccncc1Nc1ncc2cc(-c3cc(NC(=O)c4cccc(C(F)(F)F)c4)ccc3C)ncc2n1	< 0.5 µM

Source: patent US20230120564A1
